# System: A/PR/8/34 with NA-H274Y
# Type: cell-based, Influenza A virus (H1N1)
attributeMeasured: pIC50
Answers are plain numbers, as −log10 of the molar value.

QUERY: Entry COC(=O)C1=C(C)NC(C)=C(C(=O)OCC(C)C)C1c1ccccc1[N+](=O)[O-] (stereo not shown) : reported pIC50 = ?
RESULT: 5.23

Every entry's value here was drawn from paper PMC9785492.
